This collection of values is drawn from patent US20190016689A1.

# assayProcedure: Plasma and brain exposure in male CD-1 mice (Brain PK)
# Assay type: in vivo
# cond: CD-1, mouse, iv, brain, i.v. 1 mg/kg free base
# Tmax per record follows
quantity: Tmax (min)

molecule: O=C(/C=C/CN1CCCCC1)Nc1cc2c(Nc3ccc(F)c(Cl)c3F)ncnc2cc1OCCOC(F)F.O=C(O)/C=C\C(=O)O.O=C(O)/C=C\C(=O)O
quantitativeResult: 15

molecule: CN(C)C/C=C/C(=O)Nc1cc2c(Nc3ccc(F)c(Cl)c3F)ncnc2cc1OCCOC(F)F.O=C(O)/C=C\C(=O)O.O=C(O)/C=C\C(=O)O
quantitativeResult: 5

molecule: CN(C)C/C=C/C(=O)Nc1cc2c(Nc3ccc(F)c(Cl)c3)ncnc2cc1O[C@H]1CCOC1 [Afatinib, reference compound]
quantitativeResult: 5

----------
# System: P-gp
# assayProcedure: Evaluation of P-gp efflux: Caco-2 permeability
# cond: human, Caco-2, pH 7.4
# Method: At this stage of growth, cell monolayers were fully polarized and differentiated. The permeability assay buffer was Hanks Balanced Salt Solution containing 10 mM HEPES and 15 mM glucose at a pH of 7.4. The dosing buffer contained 5 μM metoprolol (positive control), 5 μM atenolol (negative control) and 100 μM lucifer yellow. The buffer in the receiver chamber also contained 1% bovine serum albumin (BSA). The dosing solution concentration was 5 μM in the assay buffer. […]
# efflux ratio at 120 min, 5 µM listing for each entry below
quantity: efflux ratio at 120 min, 5 µM

compound: CC(C)NCC(O)COc1cccc2ccccc12 (stereo not shown)
quantity: efflux ratio at 120 min, 5 µM
quantitativeResult: 0.75
//
compound: COc1cc2nc(N3CCN(C(=O)c4ccco4)CC3)nc(N)c2cc1OC
quantity: efflux ratio at 120 min, 5 µM
quantitativeResult: 1.59
//
compound: C[C@H]1O[C@@H](O[C@H]2[C@@H](O)C[C@H](O[C@H]3[C@@H](O)C[C@H](O[C@H]4CC[C@@]5(C)[C@H](CC[C@@H]6[C@@H]5C[C@@H](O)[C@]5(C)[C@@H](C7=CC(=O)OC7)CC[C@]65O)C4)O[C@@H]3C)O[C@@H]2C)C[C@H](O)[C@@H]1O
quantity: efflux ratio at 120 min, 5 µM
quantitativeResult: 30.4
//
compound: CN(C)C/C=C/C(=O)Nc1cc2c(Nc3cccc(Cl)c3F)ncnc2cc1OCCOC(F)F.O=C(O)/C=C\C(=O)O
quantity: efflux ratio at 120 min, 5 µM
quantitativeResult: 0.48

----------
Quick reference: half-life of the listed items.
# assayProcedure: Plasma and brain exposure in male CD-1 mice (Brain PK)
# Assay type: in vivo
# cond: CD-1, mouse, iv, brain, i.v. 1 mg/kg free base, read-out: Apparent t1/2 (converted)
quantity: half-life

molecule: O=C(/C=C/CN1CCCCC1)Nc1cc2c(Nc3ccc(F)c(Cl)c3F)ncnc2cc1OCCOC(F)F.O=C(O)/C=C\C(=O)O.O=C(O)/C=C\C(=O)O
result: 285 min
//
molecule: CN(C)C/C=C/C(=O)Nc1cc2c(Nc3ccc(F)c(Cl)c3)ncnc2cc1O[C@H]1CCOC1 [Afatinib, reference compound]
result: 298 min
//
molecule: CN(C)C/C=C/C(=O)Nc1cc2c(Nc3ccc(F)c(Cl)c3F)ncnc2cc1OCCOC(F)F.O=C(O)/C=C\C(=O)O.O=C(O)/C=C\C(=O)O
result: 427 min
